All figures here come from patent US20190367516A1.

- Measured on: human M2 receptor (Homo sapiens)
- Sequence (P08172 whole entry): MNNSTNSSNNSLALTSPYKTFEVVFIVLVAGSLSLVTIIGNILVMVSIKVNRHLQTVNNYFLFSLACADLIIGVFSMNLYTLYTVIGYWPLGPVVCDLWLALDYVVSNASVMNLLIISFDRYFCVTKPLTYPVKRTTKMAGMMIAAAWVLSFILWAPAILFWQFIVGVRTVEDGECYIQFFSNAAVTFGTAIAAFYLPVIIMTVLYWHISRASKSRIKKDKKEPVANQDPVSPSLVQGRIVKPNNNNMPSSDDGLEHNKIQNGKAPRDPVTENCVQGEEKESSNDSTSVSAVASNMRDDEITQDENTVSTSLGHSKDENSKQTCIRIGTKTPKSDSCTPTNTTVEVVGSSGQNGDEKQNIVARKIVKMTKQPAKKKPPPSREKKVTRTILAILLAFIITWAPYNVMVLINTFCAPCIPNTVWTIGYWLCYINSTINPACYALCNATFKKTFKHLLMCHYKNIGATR
- Experimental setup: Receptor activity EC50, allosteric potency at EC20 acetylcholine; M2-GIRK1/4 reporter cells; in some cases mean of two or more determinations
Property label: EC50 (nM)
Answers are plain numbers, in nM.

# example entries with known answers
Molecule: CC(NC(=O)c1cn(-c2c(F)cc(F)cc2F)c2nc(N3C[C@@H](C)NC3=O)ccc2c1=O)C(F)(F)C(F)(F)F (mixture of isomers) [Example 458]
Measured on: human M2 receptor (Homo sapiens)
Measured value: 3

Molecule: CC(C)(C)NC(=O)c1cn(-c2c(F)cc(F)cc2F)c2nc(N3C[C@@H](O)[C@H](O)C3)ccc2c1=O
Measured on: human M2 receptor (Homo sapiens)
Measured value: 38

Molecule: O=C(N[C@@H](C1CC1)C(F)(F)F)c1cn(-c2c(F)cc(F)cc2F)c2nc(N3C[C@H](O)[C@@H](O)C3)ccc2c1=O
Measured on: human M2 receptor (Homo sapiens)
Measured value: 72

Molecule: CC[C@H](NC(=O)c1cn(-c2c(F)cc(F)cc2Cl)c2nc(N3C[C@@H](O)[C@H](O)C3)ccc2c1=O)C(F)(F)F (single isomer, unassigned) [Example 568]
Measured on: human M2 receptor (Homo sapiens)
Measured value: 11

Entry under test: O=C(NC(c1ccccc1Cl)C(F)(F)F)c1cn(-c2c(F)cc(F)cc2F)c2nc(N3CCNC3=O)ccc2c1=O (single isomer, unassigned) [Example 565] . Its EC50 was 10

###

- Measured on: human M2 receptor (Homo sapiens)
- Experimental setup: read-out: Efficiency, boosting of the acetylcholine effect at EC20 acetylcholine concentration; M2-GIRK1/4 reporter cells
Property label: Emax (%)
One number for each entry, in %.

# example entries with known answers
Molecule: O=C(NC12CC(C1)C2)c1cn(-c2c(F)cc(F)cc2Cl)c2nc(N3C[C@@H](O)CC3=O)ccc2c1=O [Example 396]
Property label: Emax
Measurement units: %
Measured value: 92
//
Molecule: CC[C@H](NC(=O)c1cn(-c2c(F)cc(F)cc2F)c2nc(N3CC(O)C4(CC4)C3)ccc2c1=O)C(F)(F)F (single isomer, unassigned) [Example 620]
Property label: Emax
Measurement units: %
Measured value: 100
//
Molecule: O=C(N[C@@H](C1CC1)C(F)(F)F)c1cn(-c2c(F)cc(F)cc2F)c2nc(N3CC(CO)(CO)C3)ccc2c1=O [Example 502]
Property label: Emax
Measurement units: %
Measured value: 91

Hi! Can you tell me Emax for each of these molecules?
1. CC[C@@H](NC(=O)c1cn(-c2ccc(F)cc2F)c2nc(N3C[C@@H](O)[C@@H](O)C3)ccc2c1=O)C(F)(F)F [Example 639]
2. CCC(COC(F)(F)F)NC(=O)c1cn(-c2c(F)cc(F)cc2F)c2nc(N3CCNC3=O)ccc2c1=O (racemic) [Example 609]
3. CC(C)C(NC(=O)c1cn(-c2c(F)cc(F)cc2F)c2nc(N3C[C@@H](O)CC3=O)ccc2c1=O)C(C)C [Example 475]
4. O=C(N[C@H](C1CC1)C(F)(F)F)c1cn(-c2c(F)cc(F)cc2Cl)c2nc(N3CC4CC4(O)C3)ccc2c1=O (mixture of isomers) [Example 415]
5. O=C(N[C@@H](C1CC1)C(F)(F)F)c1cn(-c2c(F)cc(F)cc2F)c2nc(N3C[C@@H](C(=O)O)OC3=O)ccc2c1=O [Example 667]

1. 96.5
2. 99
3. 100
4. 96
5. 100

Hi! Can you tell me Emax for each of these molecules?
1. O=C(NC(CC(F)(F)F)C1CC1)c1cn(-c2c(F)cc(F)cc2F)c2nc(N3C[C@@H](O)CC3=O)ccc2c1=O (mixture of isomers) [Example 512]
2. CC(C)C[C@H](NC(=O)c1cn(-c2c(F)cc(F)cc2F)c2nc(N3C[C@@H](O)[C@@H](O)C3)ccc2c1=O)C(F)(F)F [Example 573]
3. CC(C)(CC(F)(F)F)NC(=O)c1cn(-c2c(F)cc(F)cc2Cl)c2nc(N3C[C@@H](O)CC3=O)ccc2c1=O [Example 395]
4. CCC(COC(F)(F)F)NC(=O)c1cn(-c2c(F)cc(F)cc2F)c2nc(N3C[C@@H](O)[C@H](O)C3)ccc2c1=O (single isomer, unassigned) [Example 577]
5. O=C(N[C@@H](C1CC1)C(F)(F)F)c1cn(-c2c(F)cc(F)cc2F)c2nc(N(CCO)CCO)ccc2c1=O [Example 664]
6. O=C(NC(C(F)(F)F)C(F)(F)F)c1cn(-c2c(F)cc(F)cc2F)c2nc(N3C[C@@H](O)[C@H](O)C3)ccc2c1=O [Example 572]

100
100
100
100
98
100

Hi! Can you tell me Emax for each of these molecules?
1. O=C(N[C@@H](C1CC1)C(F)(F)F)c1cn(-c2c(F)cc(F)cc2F)c2nc(N3CC(O)C4(CC4)C3)ccc2c1=O (single isomer, unassigned) [Example 601]
2. CC[C@H](NC(=O)c1cn(-c2c(F)cccc2F)c2nc(N3CCNC3=O)ccc2c1=O)C(F)(F)F [Example 637]
3. CCC(COC(F)(F)F)NC(=O)c1cn(-c2c(F)cc(F)cc2F)c2nc(N3C[C@@H](O)CC3=O)ccc2c1=O (mixture of isomers) [Example 410]
4. COC(=O)N1CCN(c2ccc3c(=O)c(C(=O)NC(C)(C)CC(F)(F)F)cn(-c4c(F)cc(F)cc4F)c3n2)CC1 [Example 575]
5. CCC(NC(=O)c1cn(-c2ccc(F)cc2F)c2nc(N3C[C@@H](O)CC3=O)ccc2c1=O)C(F)(F)C(F)(F)F (mixture of isomers) [Example 556]

1: 100; 2: 93; 3: 87; 4: 96; 5: 100
